target: cloned human MC4R (Homo sapiens, UniProt P32245); construct: made in house; host or cells: Hi5 insect cells (baculovirus infection); membrane preparation; test: Membrane binding assay: competitive inhibition of [125I]NDP-α-MSH binding; details: read-out: Displacement Rate (%) (at 10 μM)
Sequence (P32245 whole entry): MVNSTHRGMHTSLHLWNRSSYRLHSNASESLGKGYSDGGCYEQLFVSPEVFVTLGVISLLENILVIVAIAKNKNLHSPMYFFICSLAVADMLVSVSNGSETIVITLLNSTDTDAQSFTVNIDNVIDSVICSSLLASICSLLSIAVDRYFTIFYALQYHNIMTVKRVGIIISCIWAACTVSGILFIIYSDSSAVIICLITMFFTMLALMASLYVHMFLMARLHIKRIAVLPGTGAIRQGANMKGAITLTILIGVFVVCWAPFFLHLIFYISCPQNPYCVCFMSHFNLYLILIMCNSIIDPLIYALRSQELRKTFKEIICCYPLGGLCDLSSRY
reported-metric: inhibition at 10 µM

>>> reported("N[C@@H](Cc1ccc(-c2cccc3c2Sc2ccccc2O3)cc1)C(=O)N1CCN(Cc2cccc(Cl)c2Cl)CC1 [Example 335]")
"91 to 100%"
>>> reported("N[C@@H](Cc1ccc(OCc2ccccc2)cc1)C(=O)N1CCCN(Cc2cc3c(cc2Cl)OCO3)CC1 [Example 71]")
"35 to 70%"
>>> reported("N[C@@H](Cc1ccc(-c2cnc3ccccc3c2)cc1)C(=O)N1CCN(Cc2cccc(Cl)c2Cl)CC1 [Example 341]")
"71 to 90%"
>>> reported("N[C@@H](Cc1ccc(OCc2ccccc2)cc1)C(=O)N1CCN(Cc2c3ccccc3cc3ccccc23)CC1 [Example 100]")
"91 to 100%"
>>> reported("COc1ccc(-c2ccc(C[C@H](N)C(=O)N3CCN(Cc4cccc(Cl)c4Cl)CC3)cc2)cn1 [Example 343]")
"35 to 70%"

In: Please tell me: inhibition at 10 µM of N[C@@H](Cc1ccc(-c2cccc3c2oc2ccccc23)cc1)C(=O)N1CCN(Cc2cccc(Cl)c2Cl)CC1 [Example 336] , system cloned human MC4R (Homo sapiens, UniProt P32245)?
Out: 91 to 100%

In: How about N[C@@H](Cc1ccc(OCc2ccccc2)cc1)C(=O)N1CCCN(Cc2cc([N+](=O)[O-])ccc2Cl)CC1 [Example 34] ?
Out: 71 to 90%

* * *

biological target: cloned human MC4R (Homo sapiens); construct: made in house; host or cells: Hi5 insect cells (baculovirus infection); membrane preparation; assay: Membrane binding assay: competitive inhibition of [125I]NDP-α-MSH binding; conditions: read-out: MC4R IC50
reported-metric: IC50

Example entries begin here.
>>> reported("N[C@@H](Cc1ccc(OCc2ccccc2)cc1)C(=O)N1CCN(C2CCN(Cc3ccccc3)CC2)CC1 [Example 155]")
"> 3 µM"
>>> reported("COc1ccccc1COc1ccc(C[C@H](N)C(=O)N2CCN(Cc3cccc(Cl)c3Cl)CC2)cc1 [Example 231]")
"> 3 µM"
>>> reported("N[C@@H](Cc1ccc(OCc2ccccc2)cc1)C(=O)N1CCN(Cc2ccc(Oc3ccccc3)cc2)CC1 [Example 84]")
"< 1.5 µM"
>>> reported("N[C@@H](Cc1ccc(OCc2ccccc2)cc1)C(=O)N1CCN(Cc2ccc([N+](=O)[O-])cc2)CC1 [Example 149]")
"> 3 µM"
>>> reported("N[C@@H](Cc1ccc(OCc2ccccc2)cc1)C(=O)N1CCCN(Cc2cc3c(cc2[N+](=O)[O-])OCO3)CC1 [Example 77]")
"> 3 µM"

In: Recorded IC50 of N[C@@H](Cc1ccc(-c2ccsc2)cc1)C(=O)N1CCN(Cc2cccc(Cl)c2Cl)CC1 [Example 339] , please.
Out: < 1.5 µM

In: How about N[C@@H](Cc1ccc(OCc2ccccc2)cc1)C(=O)N1CCN(CC(c2ccccc2)c2ccccc2)CC1 [Example 102] ?
Out: 1.5 to 3 µM

* * *

target: cloned human MC4R (Homo sapiens); construct: made in house; host or cells: Hi5 insect cells (baculovirus infection); membrane preparation; assay: Membrane binding assay: competitive inhibition of [125I]NDP-α-MSH binding; settings: read-out: MC4R IC50
pIC50: −log10 of the molar value.
# reported pIC50; entries follow

>>> reported("CN(C)c1ccc(-c2ccc(C[C@H](N)C(=O)N3CCN(Cc4cccc(Cl)c4Cl)CC3)cc2)cc1")
"5.52 to 5.82"
>>> reported("N[C@@H](Cc1ccc(OCc2ccccc2)cc1)C(=O)N1CCCN(Cc2cc3c(cc2Cl)OCO3)CC1")
"< 5.52"
>>> reported("O=C([C@H](Cc1ccc(OCc2ccccc2)cc1)NCCc1ccccc1)N1CCN(Cc2cccc(Cl)c2Cl)CC1")
"< 5.52"
>>> reported("CC(c1ccccc1)N1CCN(C(=O)[C@@H](N)Cc2ccc(OCc3ccccc3)cc2)CC1 (stereo partly drawn)")
"< 5.52"
>>> reported("CCc1ccc(-c2ccc(C[C@H](N)C(=O)N3CCN(Cc4cccc(Cl)c4Cl)CC3)cc2)cc1")
"> 5.82"

In: Recorded pIC50 of N[C@@H](Cc1ccc(OCc2ccccc2Br)cc1)C(=O)N1CCN(Cc2cccc(Cl)c2Cl)CC1 , please.
Out: > 5.82

In: How about CCOc1ccccc1CN1CCN(C(=O)[C@@H](N)Cc2ccc(OCc3ccccc3)cc2)CC1 ?
Out: 5.52 to 5.82

In: How about CCOc1ccc(COc2ccc(C[C@H](N)C(=O)N3CCN(Cc4cccc(Cl)c4Cl)CC3)cc2)cc1 ?
Out: 5.52 to 5.82

In: How about N[C@@H](Cc1ccc(OCc2ccccc2)cc1)C(=O)N1CCN(Cc2cc(C(F)(F)F)cc(C(F)(F)F)c2)CC1 ?
Out: > 5.82

In: How about N[C@@H](Cc1ccc(OCc2ccccc2)cc1)C(=O)N1CCCN(C2CCC(c3ccccc3)CC2)CC1 (stereo partly drawn) ?
Out: < 5.52

In: How about N[C@@H](Cc1ccc(OCc2ccccc2)cc1)C(=O)N1CCCN(Cc2ccc(-c3ccc(Cl)cc3)o2)CC1 ?
Out: 5.52 to 5.82

In: How about N[C@@H](Cc1ccc(OCc2ccccc2)cc1)C(=O)N1CCCN(Cc2ccc(OCc3ccc([N+](=O)[O-])cc3)cc2)CC1 ?
Out: > 5.82

In: How about N[C@@H](Cc1ccc(-c2cccc(Cl)c2Cl)cc1)C(=O)N1CCN(Cc2cccc(Cl)c2Cl)CC1 ?
Out: > 5.82

In: How about N[C@@H](Cc1ccc(OCc2ccc(Cl)c(Cl)c2)cc1)C(=O)N1CCN(Cc2cccc(Cl)c2Cl)CC1 ?
Out: > 5.82

In: How about N[C@@H](Cc1ccc(-c2cccc3cccnc23)cc1)C(=O)N1CCN(Cc2cccc(Cl)c2Cl)CC1 ?
Out: 5.52 to 5.82

* * *

target: cloned human MC4R (Homo sapiens, UniProt P32245); construct: made in house; host or cells: Hi5 insect cells (baculovirus infection); membrane preparation; assay: Membrane binding assay: competitive inhibition of [125I]NDP-α-MSH binding; conditions: read-out: MC4R IC50
reported-metric: IC50

>>> reported("COc1ccccc1-c1ccc(C[C@H](N)C(=O)N2CCN(Cc3cccc(Cl)c3Cl)CC2)cc1 [Example 326]")
"1500 to 3000 nM"
>>> reported("N[C@@H](Cc1ccc(OCc2ccccc2)cc1)C(=O)N1CCCN(Cc2ccc(/C=C/c3ccccc3)cc2)CC1 [Example 11]")
"< 1500 nM"
>>> reported("COc1cc(OC)c(CN2CCN(C(=O)[C@@H](N)Cc3ccc(OCc4ccccc4)cc3)CC2)cc1Br [Example 130]")
"> 3000 nM"
>>> reported("N[C@@H](Cc1ccc(OCc2ccccc2)cc1)C(=O)N1CCCN(Cc2ccc(OCc3ccccc3)cc2)CC1 [Example 13]")
"1500 to 3000 nM"
>>> reported("CCOc1cccc(CN2CCCN(C(=O)[C@@H](N)Cc3ccc(OCc4ccccc4)cc3)CC2)c1O [Example 40]")
"> 3000 nM"

Switching to the query record.
In: Recorded IC50 of CC(Cc1cccc(C(F)(F)F)c1)N1CCCN(C(=O)[C@@H](N)Cc2ccc(OCc3ccccc3)cc2)CC1 (stereo partly drawn) [Example 44] , please.
Out: 1500 to 3000 nM

* * *

# reported IC50; entries follow
molecular target: cloned human MC4R (Homo sapiens, UniProt P32245); construct: made in house; host or cells: Hi5 insect cells (baculovirus infection); membrane preparation; experiment: Membrane binding assay: competitive inhibition of [125I]NDP-α-MSH binding; conditions: read-out: MC4R IC50

>>> reported("CSc1ccc(CN2CCN(C(=O)[C@@H](N)Cc3ccc(OCc4ccccc4)cc3)CC2)cc1")
"1500 to 3000 nM"
>>> reported("N[C@@H](Cc1ccc(OCc2ccccc2)cc1)C(=O)N1CCN(Cc2cc([N+](=O)[O-])ccc2Cl)CC1")
"1500 to 3000 nM"
>>> reported("CCCOc1ccc(CN2CCN(C(=O)[C@@H](N)Cc3ccc(OCc4ccccc4)cc3)CC2)cc1")
"1500 to 3000 nM"
>>> reported("N[C@@H](Cc1ccc(OCc2ccc([N+](=O)[O-])cc2)cc1)C(=O)N1CCN(Cc2cccc(Cl)c2Cl)CC1")
"1500 to 3000 nM"
>>> reported("CC(C)N[C@@H](Cc1ccc(OCc2ccccc2)cc1)C(=O)N1CCN(Cc2cccc(Cl)c2Cl)CC1")
"< 1500 nM"

In: Recorded IC50 of N[C@@H](Cc1ccc(OCc2ccccc2)cc1)C(=O)N1CCCN(Cc2ccc3ccccc3c2)CC1 , please.
Out: > 3000 nM

In: How about N[C@@H](Cc1ccc(-c2ccccc2F)cc1)C(=O)N1CCN(Cc2cccc(Cl)c2Cl)CC1 ?
Out: < 1500 nM
